experiment: Cytotoxic evaluation on HepG2 cell line
Type: cell-based
experimental-context: human, HepG2 cells (hepatocarcinoma cell line)
readout-label: CC50 at 72 h

Worked cases, answers included:
O=c1[nH]c2c([N+](=O)[O-])cccc2cc1-c1ccc(O)cc1
> 3 µM
O=c1[nH]c2c([N+](=O)[O-])cccc2cc1-c1ccccc1CO
> 100 µM
O=c1[nH]c2c([N+](=O)[O-])cccc2cc1-c1ccco1
> 3 µM
O=c1[nH]c2c([N+](=O)[O-])cccc2cc1-c1cccnc1
> 25 µM
O=c1[nH]c2c([N+](=O)[O-])cccc2cc1-c1ccsc1
> 6 µM

Need CC50 at 72 h for each of these compounds.
1. O=C(O)c1ccc(-c2cc3cccc([N+](=O)[O-])c3[nH]c2=O)cc1
2. Cc1ccc(C(=O)Nc2ccc(S(=O)(=O)O)c3cc(S(=O)(=O)O)cc(S(=O)(=O)O)c23)cc1NC(=O)c1cccc(NC(=O)Nc2cccc(C(=O)Nc3cc(C(=O)Nc4ccc(S(=O)(=O)O)c5cc(S(=O)(=O)O)cc(S(=O)(=O)O)c45)ccc3C)c2)c1 [Suramin, reference compound]

["120 µM", "> 100 µM"]

----------
Tested on: L. infantum axenic amastigotes
experiment: Antileishmanial activity on L. infantum axenic amastigotes
Assay type: cell-based
experimental-context: Leishmania infantum, 48 h, read-out: IC50 L. infantum axenic amastigotes
readout-label: IC50 (µM)
Give bare numbers, in µM.

Worked cases, answers included:
O=Cc1cccc(-c2cc3cccc([N+](=O)[O-])c3[nH]c2=O)c1 [Compound 16]
10.2
O=c1[nH]c2c([N+](=O)[O-])cccc2cc1-c1ccccc1CO [Compound 14]
22
O=Cc1ccc(-c2cc3cccc([N+](=O)[O-])c3[nH]c2=O)cc1 [Compound 15]
35

// switching to the query compound
Report IC50 for CSc1ccc(OCc2ncc([N+](=O)[O-])n2C)cc1 [Fexinidazole, reference compound] please.
3.3

----------
experiment: Cytotoxic evaluation on HepG2 cell line
Type: cell-based
experimental-context: human, HepG2 cells (hepatocarcinoma cell line)
readout-label: CC50 at 72 h

O=c1[nH]c2c([N+](=O)[O-])cccc2cc1-c1ccc(Cl)cc1
> 3 µM
C[C@@H]1[C@H](O)[C@@H](C)/C=C/C=C/C=C/C=C/C=C/C=C/C=C/[C@H](O[C@@H]2O[C@H](C)[C@@H](O)[C@H](N)[C@@H]2O)C[C@@H]2O[C@](O)(C[C@@H](O)C[C@@H](O)[C@H](O)CC[C@@H](O)C[C@@H](O)CC(=O)O[C@H]1C)C[C@H](O)[C@H]2C(=O)O [Amphotericin B, reference compound]
7 µM
NCCCC(N)(C(=O)O)C(F)F (stereo not shown) [Eflornithine, reference compound]
> 100 µM
Nc1ccc(-c2cc3cccc([N+](=O)[O-])c3[nH]c2=O)cc1
> 3 µM
O=C(O)c1cccc(-c2cc3cccc([N+](=O)[O-])c3[nH]c2=O)c1
> 100 µM

Need CC50 at 72 h for each of these molecules.
1. O=c1[nH]c2c([N+](=O)[O-])cccc2cc1-c1cccc(CO)c1
2. O=c1[nH]c2c([N+](=O)[O-])cccc2cc1-c1ccc(CO)cc1

1. > 25 µM
2. > 25 µM

----------
System: L. infantum axenic amastigotes
experiment: Antileishmanial activity on L. infantum axenic amastigotes
Format: cell-based
experimental-context: Leishmania infantum, 48 h, read-out: IC50 L. infantum axenic amastigotes
Can you tell me IC50 for the items I'm about to list?

O=c1[nH]c2c([N+](=O)[O-])cccc2cc1-c1ccsc1
> 6 µM
O=c1[nH]c2c([N+](=O)[O-])cccc2cc1-c1ccco1
> 3 µM
O=C(O)c1ccccc1-c1cc2cccc([N+](=O)[O-])c2[nH]c1=O
> 100 µM
C[C@@H]1[C@H](O)[C@@H](C)/C=C/C=C/C=C/C=C/C=C/C=C/C=C/[C@H](O[C@@H]2O[C@H](C)[C@@H](O)[C@H](N)[C@@H]2O)C[C@@H]2O[C@](O)(C[C@@H](O)C[C@@H](O)[C@H](O)CC[C@@H](O)C[C@@H](O)CC(=O)O[C@H]1C)C[C@H](O)[C@H]2C(=O)O [Amphotericin B, reference compound]
0.06 µM

Need IC50 for each of these compounds.
1. O=Cc1ccccc1-c1cc2cccc([N+](=O)[O-])c2[nH]c1=O
2. O=c1[nH]c2c([N+](=O)[O-])cccc2cc1-c1cccc(CO)c1
3. COc1nc2c([N+](=O)[O-])cccc2cc1-c1ccc(C(=O)O)cc1

1: 9.8 µM; 2: 29.3 µM; 3: 12.8 µM

Need IC50 for each of these compounds.
1. Nc1ccc(-c2cc3cccc([N+](=O)[O-])c3[nH]c2=O)cc1
2. COC(=O)c1ccc(-c2cc3cccc([N+](=O)[O-])c3[nH]c2=O)cc1
3. O=c1[nH]c2c([N+](=O)[O-])cccc2cc1-c1ccc(C(F)(F)F)cc1

1: > 3 µM; 2: > 12.5 µM; 3: > 6 µM

Need IC50 for each of these compounds.
1. CCCCCCCCCCCCCCCCOP(=O)([O-])OCC[N+](C)(C)C [Miltefosine, reference compound]
2. O=C(O)c1cccc(-c2cc3cccc([N+](=O)[O-])c3[nH]c2=O)c1
3. O=c1[nH]c2c([N+](=O)[O-])cccc2cc1-c1ccccc1

["0.8 µM", "> 100 µM", "> 12 µM"]

Need IC50 for each of these compounds.
1. O=c1[nH]c2c([N+](=O)[O-])cccc2cc1-c1cccnc1
2. O=c1[nH]c2c([N+](=O)[O-])cccc2cc1-c1ccc(Cl)cc1

1: > 50 µM; 2: > 3 µM
